// provenance: ChEMBL document CHEMBL4382240

The reader will find reported IC50 values listed item by item below.
# assayedTarget: UniProt:P05067
# Sequence (P05067 whole entry): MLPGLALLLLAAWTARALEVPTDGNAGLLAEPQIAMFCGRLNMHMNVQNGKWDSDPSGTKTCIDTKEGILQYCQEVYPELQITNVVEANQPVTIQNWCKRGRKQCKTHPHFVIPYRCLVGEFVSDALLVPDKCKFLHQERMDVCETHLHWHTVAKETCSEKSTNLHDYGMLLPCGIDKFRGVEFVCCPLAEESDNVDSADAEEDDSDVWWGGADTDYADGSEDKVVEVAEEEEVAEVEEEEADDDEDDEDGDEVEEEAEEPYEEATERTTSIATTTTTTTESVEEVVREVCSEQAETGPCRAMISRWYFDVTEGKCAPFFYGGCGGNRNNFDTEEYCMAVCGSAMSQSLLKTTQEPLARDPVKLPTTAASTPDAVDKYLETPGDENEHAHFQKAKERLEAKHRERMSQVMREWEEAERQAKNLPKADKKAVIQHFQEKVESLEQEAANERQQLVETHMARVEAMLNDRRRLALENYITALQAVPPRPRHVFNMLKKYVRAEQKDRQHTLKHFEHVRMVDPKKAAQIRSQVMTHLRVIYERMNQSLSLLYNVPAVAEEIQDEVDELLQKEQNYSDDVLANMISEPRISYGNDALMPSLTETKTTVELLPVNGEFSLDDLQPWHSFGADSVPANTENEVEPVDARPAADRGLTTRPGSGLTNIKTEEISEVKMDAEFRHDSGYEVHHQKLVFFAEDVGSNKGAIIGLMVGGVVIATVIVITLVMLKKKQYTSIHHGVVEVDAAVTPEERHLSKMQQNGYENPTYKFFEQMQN
# assayName: Inhibition of human amyloid beta (1 to 42) self-induced aggregation after 24 hrs by Thioflavin T based fluorometric assay
assayReadout: IC50 (µM)

                    compoundstructurestring  assayreadout  resultunit  quantitativeresult
0  CCN(CCCCCCNC(=O)c1cc(O)c(C(=O)NCCCCCCN(CC)Cc2ccccc2)cc1O)Cc1ccccc1          IC50          µM                 2.8
1  CCN(CCCNC(=O)c1cc(O)c(C(=O)NCCCN(CC)Cc2ccccc2OC)cc1O)Cc1ccccc1OC          IC50          µM                2.41
2  COc1ccccc1CN(C)CCCNC(=O)c1cc(O)c(C(=O)NCCCN(C)Cc2ccccc2OC)cc1O          IC50          µM                3.63
3  CN(CCCCNC(=O)c1cc(O)c(C(=O)NCCCCN(C)Cc2ccccc2)cc1O)Cc1ccccc1          IC50          µM                3.55
4  CCN(CCCNC(=O)c1cc(O)c(C(=O)NCCCN(CC)Cc2ccccc2)cc1O)Cc1ccccc1          IC50          µM                 4.2
5  COc1ccccc1CN(C)CCCCCCNC(=O)c1cc(O)c(C(=O)NCCCCCCN(C)Cc2ccccc2OC)cc1O          IC50          µM                2.31
